B1: glmS ribozyme (parent)
chain: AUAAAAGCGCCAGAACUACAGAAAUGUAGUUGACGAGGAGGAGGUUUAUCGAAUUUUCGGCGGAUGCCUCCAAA

Variants of: B1
Assay: kcat; higher = faster cleavage; RNA array
Conditions: with glucosamine-6-phosphate
This sample holds only a part of the variants without activity.
Assign kcat to each entry below.

Notebook: AUAAAAGCUCCAGAACUACAGAAAUGUAGUUGACGAGGAGGAGGUUCAUCGAAUUUUCGGCGGAUGCCUCCAAA [G9U U47C] , kcat read as < 1e-05 s⁻¹

Notebook: AUAAAAGCGCCAGAACUACAGAAAUGUAGUUGACGAGGAGGAGGUUUAUCGAAUUUUCUGGGGAUGCCUCCAAA [G59U C61G] , kcat read as < 1e-05 s⁻¹

Notebook: AUAAAAGCGGCAGAACUACAGAAAUGUAGUUGACGAGGAGGAGGUUUAUCGAAUUUUCGGCCGAUGCCUCCAAA [C10G G62C] , kcat read as < 1e-05 s⁻¹

Notebook: AUAAAAGCGCCAGAACUACAGAAAUGUAGUCGACGAUGAGGAGGUUUAUCGAAUUUUCGGCGGAUGCCUCCAAA [U31C G37U] , kcat read as < 1e-05 s⁻¹

Notebook: AUAAAAGCGCCAGAACUACAGAAAUGUAGUUGACUACGAGGAGGUUUAUCGAAUUUUCGUCGGAUGCCUCCAAA [G35U G37C G60U] , kcat read as < 1e-05 s⁻¹
